methodNotes: Cytotoxicity in HEK293T cells assessed as cell viability at 5 uM incubated for 48 hrs by CCK8 assay relative to control
Assay type: toxicity, cell-based, HEK-293T
assaySetup: human, read-out: Activity
quantityName: viability at 48 h, 5 µM (%)
One number for each entry, in %.

>  <smilesCode>
O=C(NCC1CCOCC1)Nc1ccc(/C=C/c2ccc3c(c2)OCO3)cc1

>  <quantityName>
viability at 48 h, 5 µM

>  <measurementUnits>
%

>  <obsValue>
98.2

$$$$

Now consider a different compound.
Name the recorded viability at 48 h, 5 µM for "O=C(Cc1ccccn1)Nc1cccc(/C=C/c2ccc(NC(=O)NCC3CCOCC3)cc2)c1" .
82.9

---

methodNotes: AUC (0 to 24 hrs) in Sprague-Dawley rat at 5 mg/kg, iv measured after 24 hrs
Type: ADME, organism-based
assaySetup: in vivo
quantityName: AUC(0-t) at 24 h (ng·h/mL)
One number for each entry, in ng·h/mL.

Entry "O=C(Cc1ccccn1)Nc1cccc(/C=C/c2ccc(NC(=O)NCC3CCOCC3)cc2)c1" has what AUC(0-t) at 24 h?
266

---

methodNotes: Tmax in Sprague-Dawley rat at 20 mg/kg, po measured after 24 hrs
Type: ADME, organism-based
assaySetup: in vivo
quantityName: Tmax (min)
Give bare numbers, in min.

Fill in: Tmax of "O=C(Cc1ccccn1)Nc1cccc(/C=C/c2ccc(NC(=O)NCC3CCOCC3)cc2)c1" is ___
30

---

methodNotes: in vivo
assaySetup: C57BL/6J, mouse, other tissue, ip, 5 mg/kg
Description: Ratio of AUC (0 to 24 hrs)in C57BL/6J mouse liver to blood at 5 mg/kg, ip measured after 24 hrs by LC-MS/MS analysis
quantityName: Kp at 24 h
One number for each entry.

What does the record list as Kp at 24 h for "O=C(Cc1ccccn1)Nc1cccc(/C=C/c2ccc(NC(=O)NCC3CCOCC3)cc2)c1" ?
175

---

methodNotes: Oral bioavailability in Sprague-Dawley rat at 20 mg/kg measured after 24 hrs
Assay type: ADME, organism-based
assaySetup: in vivo
quantityName: bioavailability
For clarity, give the value followed by its unit.

Query (compound): "O=C(Cc1ccccn1)Nc1cccc(/C=C/c2ccc(NC(=O)NCC3CCOCC3)cc2)c1" ; field requested: bioavailability
5.1%

---

methodNotes: Cmax in C57BL/6J mouse blood at 5 mg/kg, ip measured after 24 hrs by LC-MS/MS analysis
Assay type: ADME, organism-based
quantityName: Cmax
Don't forget the unit after the value.

I'd like to know its Cmax. The compound in question is "O=C(Cc1ccccn1)Nc1cccc(/C=C/c2ccc(NC(=O)NCC3CCOCC3)cc2)c1"
330 ng/mL

---

Please go through the items and note down their viability at 48 h, 50 µM.
methodNotes: Cytotoxicity in HEK293T cells assessed as cell viability at 50 uM incubated for 48 hrs by CCK8 assay relative to control
Assay type: toxicity, cell-based, HEK-293T
assaySetup: human, read-out: Activity
Phrase the answer as number then unit, nothing more needed.

>  <smilesCode>
O=C(Cc1ccccn1)Nc1cccc(/C=C/c2ccc(NC(=O)NCC3CCOCC3)cc2)c1

>  <quantityName>
viability at 48 h, 50 µM

>  <obsValue>
46.6%

$$$$

Entry "O=C(NCC1CCOCC1)Nc1ccc(/C=C/c2ccc3c(c2)OCO3)cc1" : reported viability at 48 h, 50 µM = ?
84.3%

---

methodNotes: Apparent volume of distribution in Sprague-Dawley rat at 5 mg/kg, iv measured after 24 hrs
Assay type: ADME, organism-based
assaySetup: in vivo, read-out: Vz
quantityName: Vd (L/kg)
One number for each entry, in L/kg.

Need Vd, item "O=C(Cc1ccccn1)Nc1cccc(/C=C/c2ccc(NC(=O)NCC3CCOCC3)cc2)c1"
10.8

---

Target or system Bifunctional epoxide hydrolase 2 (Homo sapiens); recorded quantity pIC50.
One number for each entry, as −log10 of the molar value.

>  <smilesCode>
O=C(NCC1CCOCC1)Nc1ccc(/C=C/c2ccc3c(c2)OCO3)cc1

>  <pIC50>
8.32

$$$$

# input for lookup
// pIC50 lookup, key: "O=C(Cc1ccccn1)Nc1cccc(/C=C/c2ccc(NC(=O)NCC3CCOCC3)cc2)c1"
8.82

---

methodNotes: Cytotoxicity against human HepG2 cells assessed as cell viability at 50 uM incubated for 48 hrs by CCK8 assay relative to control
Format: toxicity, cell-based
assaySetup: read-out: Activity
quantityName: viability at 48 h, 50 µM (%)
Answers are plain numbers, in %.

>  <smilesCode>
O=C(NCC1CCOCC1)Nc1ccc(/C=C/c2ccc3c(c2)OCO3)cc1

>  <viability at 48 h, 50 µM (%)>
69

$$$$

Please examine the following record next.
Sample "O=C(Cc1ccccn1)Nc1cccc(/C=C/c2ccc(NC(=O)NCC3CCOCC3)cc2)c1" — what was its viability at 48 h, 50 µM?
46.5

---

methodNotes: Cmax in Sprague-Dawley rat at 20 mg/kg, po measured after 24 hrs
Assay type: ADME, organism-based
assaySetup: in vivo
quantityName: Cmax (ng/mL)
Answers are plain numbers, in ng/mL.

Look up Cmax for this molecule: "O=C(Cc1ccccn1)Nc1cccc(/C=C/c2ccc(NC(=O)NCC3CCOCC3)cc2)c1"
28.2

---

methodNotes: Cmax in Sprague-Dawley rat at 5 mg/kg, iv measured after 24 hrs
Format: ADME, organism-based
assaySetup: in vivo
quantityName: Cmax (µg/mL)
Give bare numbers, in µg/mL.

Could you tell me which Cmax is on file for "O=C(Cc1ccccn1)Nc1cccc(/C=C/c2ccc(NC(=O)NCC3CCOCC3)cc2)c1" ?
0.66

---

subjectOfTest: Bifunctional epoxide hydrolase 2 (Mus musculus)
pIC50: −log10 of the molar value.
Classification field: enter 1.0 for pIC50 values not below 8, 0.0 for values below it.

Example entries and their recorded answers appear below.
>  <smilesCode>
O=C(Cc1ccc2ncccc2c1)Nc1cccc(/C=C/c2ccc(NC(=O)NCC3CCOCC3)cc2)c1

>  <discreteLabel>
1.0

$$$$
>  <smilesCode>
O=C(Cc1ccccn1)Nc1cccc(NC(=O)c2ccc(NC(=O)NCC3CCOCC3)cc2)c1

>  <discreteLabel>
0.0

$$$$
>  <smilesCode>
O=C(NCC1CCOCC1)Nc1ccc(/C=C/c2cccc(C(=O)NCc3ccccn3)c2)cc1

>  <discreteLabel>
1.0

$$$$
>  <smilesCode>
CC(C)CNC(=O)Nc1ccc(/C=C/c2ccc3c(c2)OCO3)cc1F

>  <discreteLabel>
1.0

$$$$
>  <smilesCode>
CC(C)CCNC(=O)Nc1cccc(/C=C/c2ccc3c(c2)OCO3)c1

>  <discreteLabel>
0.0

$$$$

// switching to the query molecule
Hi team, for "CC(C)CNC(=O)Nc1ccc(/C=C/c2ccc3c(c2)OCO3)c(Cl)c1" , is the recorded pIC50 at or above 8?
1.0

---

subjectOfTest: Bifunctional epoxide hydrolase 2 (Mus musculus, UniProt P34914)
Sequence (P34914 whole entry): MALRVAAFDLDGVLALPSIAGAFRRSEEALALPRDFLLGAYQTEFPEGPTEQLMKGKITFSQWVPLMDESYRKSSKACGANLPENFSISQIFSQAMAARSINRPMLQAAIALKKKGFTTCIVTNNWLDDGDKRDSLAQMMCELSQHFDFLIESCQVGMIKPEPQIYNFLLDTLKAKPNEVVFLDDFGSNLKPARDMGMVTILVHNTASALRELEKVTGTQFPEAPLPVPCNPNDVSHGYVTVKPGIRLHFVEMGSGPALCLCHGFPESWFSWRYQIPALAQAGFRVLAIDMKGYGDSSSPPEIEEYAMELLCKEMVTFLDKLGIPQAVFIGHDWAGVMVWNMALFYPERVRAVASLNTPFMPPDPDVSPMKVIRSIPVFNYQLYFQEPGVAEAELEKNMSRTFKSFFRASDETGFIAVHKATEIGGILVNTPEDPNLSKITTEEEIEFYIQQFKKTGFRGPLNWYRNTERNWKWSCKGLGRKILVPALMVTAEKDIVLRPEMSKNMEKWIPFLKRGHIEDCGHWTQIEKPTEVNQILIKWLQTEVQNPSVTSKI
quantityName: IC50 (nM)
Give bare numbers, in nM.

Record excerpt, results attached:
>  <smilesCode>
COc1cc(/C=C/c2ccc(NC(=O)N(C)C)cc2)cc(OC)c1

>  <measurementUnits>
nM

>  <IC50>
5200

$$$$
>  <smilesCode>
Cc1cc(/C=C/c2ccc3c(c2)OCO3)ccc1NC(=O)NCC(C)C

>  <measurementUnits>
nM

>  <IC50>
3.21

$$$$
>  <smilesCode>
O=C(Cn1c2ccccc2c2ccccc21)Nc1cccc(/C=C/c2ccc(NC(=O)NCC3CCOCC3)cc2)c1

>  <measurementUnits>
nM

>  <IC50>
3.31

$$$$
>  <smilesCode>
O=C(Cn1ccc2ccccc21)Nc1cccc(/C=C/c2ccc(NC(=O)NCC3CCOCC3)cc2)c1

>  <measurementUnits>
nM

>  <IC50>
1.26

$$$$
>  <smilesCode>
COc1cc(/C=C/c2ccc(CNC(=O)NCC(C)C)cc2)cc(OC)c1

>  <measurementUnits>
nM

>  <IC50>
14.3

$$$$

Could I get IC50 for every one of these entries?
1. CC(C)CNC(=O)Nc1ccc(/C=C/c2ccc3c(c2)OCO3)c(F)c1
2. O=C(Cc1ccccn1)Nc1ccc(/C=C/c2ccc(NC(=O)NCC3CCOCC3)cc2)cc1
3. Cc1cc(NC(=O)NCC(C)C)ccc1/C=C/c1ccc2c(c1)OCO2

1. 6.72
2. 3.45
3. 3.23

---

subjectOfTest: Bifunctional epoxide hydrolase 2 (Mus musculus)
quantityName: pIC50
Give bare numbers, as −log10 of the molar value.

Guide cases for pIC50, answers given:
>  <smilesCode>
CN1CCN(C(=O)Nc2ccc(/C=C/c3ccc4c(c3)OCO4)cc2)CC1

>  <subjectOfTest>
Bifunctional epoxide hydrolase 2 (Mus musculus)

>  <pIC50>
5.56

$$$$
>  <smilesCode>
COc1ccc(/C=C/c2ccc(NC(=O)NCC(C)C)cc2)cc1O

>  <subjectOfTest>
Bifunctional epoxide hydrolase 2 (Mus musculus)

>  <pIC50>
8.32

$$$$
>  <smilesCode>
CCC(=O)N1CCC(NC(=O)Nc2ccc(/C=C/c3ccc4c(c3)OCO4)cc2)CC1

>  <subjectOfTest>
Bifunctional epoxide hydrolase 2 (Mus musculus)

>  <pIC50>
8.10

$$$$

// next entry
Please look up its pIC50: "CCC(=O)N1CCN(C(=O)Nc2ccc(/C=C/c3ccc4c(c3)OCO4)cc2)CC1"
6.70
